Data provenance is PubChem BioAssay AID330.

Entries annotated with measured T/C
tested on: P388 leukemia ip, CD2F1 mice, survival T/C; assay: NCI In Vivo Anticancer Drug Screen. Data for tumor model P388 Leukemia (intraperitoneal) in CD2F1 (CDF1) mice; settings: endpoint: median survival time; dose: 50.0 mg/kg/injection; schedule: Q01DX009 (ip); vehicle: Klucel (hydroxypropylcellulose) (HPC); higher = longer survival
Inconclusive results and toxic doses are left out.

In [3]: df
Out[3]:
                                   compound          measured
0  C/C=C/C=c1/[nH]c(=O)/c(=C\c2ccccc2)[nH]c1=O  104 % of control
1                      CN(C)NC(=S)SCCC(=O)O   99 % of control
2  CCCC(NC(=O)OCc1ccccc1)C(=O)NC(C)C(=O)O (stereo unspecified)  105 % of control
3             CCN(CC)C(=O)S(=O)(=O)c1ccccc1  120 % of control
4  C[C@]12CC[C@H]3[C@@H](CCC4=CC(=O)CC[C@@]43C)[C@@H]1CC[C@@H]2C(=O)C=O  109 % of control

query: Note down T/C recorded for CC(C)C(N)C(=O)O (stereo unspecified)
result: 100 % of control
